Origin of the recorded values: a melting point compilation (Tetko et al.; mined from patent text by program, amines drawn as free bases though some values may be those of a salt)

Provide the recorded melting point for the entries that follow.

Solved entries:
COC(=O)Cn1c(C)cc(Sc2ccccc2)c(N)c1=O	65 to 66 °C
COc1ccc(-c2coc3ccc(-c4nnc(SCc5ccc(OC)c(F)c5)o4)cc23)cc1	162 to 163 °C

Now examine the next entry.
For reference, reported melting point for CSc1cc(C(F)(F)F)nn1-c1ccc(NC(=O)c2cccnc2F)cc1 stands at 167 to 168 °C

====

Provide the recorded melting point for the entries that follow.

CC1=C2CCC(=O)C23CCC(C3)C1(C)C (stereo not given)	35 to 36 °C
CCOC(=O)c1cnc2c(O)cccc2c1	118 °C

Each of the following entries comes with a recorded value; kindly state melting point for each.
1. CCC(Cn1cncn1)(C(N)=O)c1ccc(Cl)cc1Cl (stereo not given)
2. CCCCCCc1cc2c(cc1CNCC(=O)O)C(=O)CC2
3. CC1CCCC(C)N1Cc1nc(-c2ncn3c2C2CCN2C(=O)c2c(Cl)cccc2-3)no1 (stereo not given)
4. COc1cc(OCc2cccnc2)ccc1/C=C/c1cc(/C=C/c2cccc3cc[nH]c23)n[nH]1
5. CCOC(=O)C1CCN(c2nc(COc3ccc(CCl)cc3OC)c(C)s2)CC1
6. COc1cc(/C=C/C(=O)/C=C/c2cc(OC)c(OCCO)c(OC)c2)cc(OC)c1OCCO
7. O=C(NC(CCc1ccccc1)c1nnco1)c1ccc2[nH]c(-c3ccncc3)nc2c1 (stereo not given)
8. Cn1c(Cl)nc2c3ncc(Cl)cc3ccc21

[out]
1: 164 to 165 °C; 2: 70 °C; 3: 233 to 236 °C; 4: 122 to 129 °C; 5: 98 to 99 °C; 6: 133 to 135 °C; 7: 103 °C; 8: 211 to 213 °C

====

Provide the recorded melting point for the entries that follow.

Brc1ccc2nc(-c3coc4ccccc34)cn2c1	151 to 153 °C

Each of the following entries comes with a recorded value; kindly state melting point for each.
1. COc1ccc(CSc2c(O)cc(-c3ccccc3)oc2=O)cc1
2. CN=c1nc(N)nc2sc3cc(OC)ccc3n12

[out]
1: 168 to 170 °C; 2: 208 to 209 °C

Each of the following entries comes with a recorded value; kindly state melting point for each.
1. CCC=CCn1c(=O)sc2c(=O)n(C)c(N)nc21
2. CN(C)CCc1c[nH]c2ccc(Oc3ccc(Br)cc3)cc12
3. CC[C@@H](C(=O)O)n1ccc2ccc(Cl)cc2c1=O
4. CN(C)CCOc1cc2c(Nc3ccc(Cl)cc3F)c(C#N)cnc2cn1

[out]
1: 184 to 187 °C; 2: 160 to 162 °C; 3: 160 °C; 4: 150 to 152 °C

Each of the following entries comes with a recorded value; kindly state melting point for each.
1. CC(C)(C)OC(=O)NC1CCc2ccccc2C(=Cc2ccccc2)C1=O (centres undefined)
2. Cc1cccc(-c2nc(C(C)C)[nH]c2-c2ccc(F)c(-c3ccc(CC4CNCCO4)cc3)c2)n1 (centres undefined)

[out]
["156 to 158 °C", "147 to 161 °C"]

====

Provide the recorded melting point for the entries that follow.

Solved entries:
CC(OC(=O)c1ccccc1)C(N)=O (stereo not drawn)	116 to 117 °C
O=S(=O)(O)CCCNC1CCCC1	280 to 282 °C

For reference, reported melting point for CCCCCCCCCCCCCCCCOc1cc(C(=O)O)c(O)c2ccccc12 stands at 121 to 124 °C
